This listing pairs compounds with measured log10 IC50.
- target: JAK1 (Homo sapiens)
- Construct: 866-1154; GST (N); purchased Reaction Biology Corp. (contract assay); host or cells: Baculovirus in Sf21 insect cells
- Sequence (P23458 866-1154): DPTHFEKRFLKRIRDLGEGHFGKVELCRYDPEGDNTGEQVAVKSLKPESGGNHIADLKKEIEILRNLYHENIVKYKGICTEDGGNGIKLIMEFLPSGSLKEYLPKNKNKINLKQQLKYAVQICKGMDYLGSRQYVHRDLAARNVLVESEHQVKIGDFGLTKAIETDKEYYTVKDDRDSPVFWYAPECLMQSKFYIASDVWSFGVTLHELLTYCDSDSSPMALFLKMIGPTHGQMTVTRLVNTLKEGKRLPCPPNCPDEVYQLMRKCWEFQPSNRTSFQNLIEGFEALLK
- protocol notes: In vitro enzyme inhibition, 33P-ATP filter kinase assay (Reaction Biology)
- Assay type: biochemical
Log scale reminder: IC50 in nM, then log10 taken.

[in] I have this compound here, `CN1CCC(NC(=O)c2ccc(Nc3oc(-c4c(Cl)cccc4Cl)nc3C(N)=O)cc2)CC1` , and I need its recorded log10 IC50.
[out] 1.92

[in] I have this compound here, `NC(=O)c1nc(-c2c(F)cccc2Cl)oc1Nc1ccc(C(=O)N2CCOCC2)cc1` , and I need its recorded log10 IC50.
[out] 1.46

[in] I have this compound here, `NC(=O)c1nc(-c2c(Cl)cccc2Cl)oc1Nc1ccc(C(=O)N2CCOCC2)cc1` , and I need its recorded log10 IC50.
[out] 1.23

[in] I have this compound here, `NC(=O)c1nc(-c2c(F)cccc2Cl)oc1Nc1ccc(C(=O)N[C@@H]2CCCNC2)cc1` , and I need its recorded log10 IC50.
[out] 2.20

[in] I have this compound here, `CCS(=O)(=O)c1ccc(Nc2oc(-c3c(F)cccc3F)nc2C(N)=O)cc1` , and I need its recorded log10 IC50.
[out] 2.35

[in] I have this compound here, `NC(=O)c1nc(-c2c(Cl)cccc2Cl)oc1Nc1ccc(C(=O)N[C@@H]2CCCNC2)cc1` , and I need its recorded log10 IC50.
[out] 2.03

[in] I have this compound here, `CN1CCC(NC(=O)c2ccc(Nc3oc(-c4c(F)cccc4Cl)nc3C(N)=O)cc2)CC1` , and I need its recorded log10 IC50.
[out] 2.00

[in] I have this compound here, `CC(C)S(=O)(=O)c1ccc(Nc2oc(-c3c(F)cccc3F)nc2C(N)=O)cc1` , and I need its recorded log10 IC50.
[out] 2.13

[in] I have this compound here, `NC(=O)c1nc(-c2c(Cl)cccc2Cl)oc1Nc1ccc(C(=O)N[C@H]2CCCNC2)cc1` , and I need its recorded log10 IC50.
[out] 1.86

[in] I have this compound here, `NC(=O)c1nc(-c2c(F)cccc2Cl)oc1Nc1ccc(C(=O)N[C@H]2CCCNC2)cc1` , and I need its recorded log10 IC50.
[out] 1.80
